- Tested on: Fibroblast
- method_description: Multiplex assay against human fibroblast
- Assay type: toxicity, cell-based
- test_parameters: 24 h, 10 µM, compound concentration 10 uM, replicate 1
Give measured Total Cell Count for each item. Keep answers brief.

[[record]]
molecule = "CCn1cc(-c2ccnc3[nH]c(-c4cccc(CN(C)C)c4)cc23)c(-c2ccc(NC(=O)N(C)C)cc2)n1"
value_reported = 430

[[record]]
molecule = "COc1ccc(-c2ccc3c(N4CCOCC4)nc(N4C[C@@H](C)O[C@@H](C)C4)nc3n2)cc1CO"
value_reported = 790

[[record]]
molecule = "CCCS(=O)(=O)c1nc(NC2CC2)cc(-c2ccc3c(ccn3C3CC(C)(C)NC(C)(C)C3)c2)n1"
value_reported = 123

[[record]]
molecule = "COc1cc2ncnc(Nc3ccc(F)c(Cl)c3)c2cc1NC(=O)/C=C/CN1CCCCC1 [DACOMITINIB ANHYDROUS]"
value_reported = 249

[[record]]
molecule = "COc1cccc2cc(-c3nc([C@H]4CC[C@H](C(=O)O)CC4)n4ncnc(N)c34)[nH]c12"
value_reported = 282

[[record]]
molecule = "O=C(Nc1ccc(-n2nc(-c3cccnc3)cc2C(F)(F)F)cn1)c1ccc(-c2ccccc2)c(F)c1"
value_reported = 99

[[record]]
molecule = "CNc1cc(Oc2cc(C(=O)Nc3cc(N4CCN(C)CC4)cc(C(F)(F)F)c3)ccc2C)ncn1"
value_reported = 163


Enquiry: Recall the reported Total Cell Count of CCN1CCN(Cc2ccc(Nc3ncc(F)c(-c4cc(F)c5nc(C)n(C(C)C)c5c4)n3)nc2)CC1.CS(=O)(=O)O on Fibroblast and write it down.
Return: 122
